The values you see were collected from patent US20150274820A1.

Biological target: T1, recombinant human VEGF110 (human, UniProt P15692-4 27-136, limits assumed)
T1 construct: Made in house; also called hVEGF110
T1 sequence (looked up): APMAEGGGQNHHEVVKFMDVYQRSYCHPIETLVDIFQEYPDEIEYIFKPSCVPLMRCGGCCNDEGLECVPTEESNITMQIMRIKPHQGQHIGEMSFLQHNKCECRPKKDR
Assay: Biacore SPR, VEGF immobilized, pH 5
kon: recorded values
Entry rule: numbers only, all in M⁻¹ s⁻¹.

Please review the entries below; each comes with its answer.
binder: 509-maxII (scFv, VH tied by name; also called Protein Nr) scFv: EIVMTQSPSTLSASVGDRVIITCQASQNIRIWLSWYQQKPGKAPKLLIYKASTLESGVPSRFSGSGSGTEFTLTISSLQPDDFATYYCQNNAHYSTNGGTFGQGTKLTVLGGGGGSGGGGSGGGGSGGGGSEVQLVESGGGLVQPGGSLRLSCTASGFSLSSYYMSWVRQAPGKGLEWVGILDYVGDTDYASWAKGRFTISKDASKNTVYLQMNSLRAEDTAVYYCARTDDSRGWGLNIWGQGTLVTVSS
units label: M⁻¹ s⁻¹
kon: 901000

binder: 509-min (scFv, VL and VH tied by name; also called Protein Nr; 854) scFv: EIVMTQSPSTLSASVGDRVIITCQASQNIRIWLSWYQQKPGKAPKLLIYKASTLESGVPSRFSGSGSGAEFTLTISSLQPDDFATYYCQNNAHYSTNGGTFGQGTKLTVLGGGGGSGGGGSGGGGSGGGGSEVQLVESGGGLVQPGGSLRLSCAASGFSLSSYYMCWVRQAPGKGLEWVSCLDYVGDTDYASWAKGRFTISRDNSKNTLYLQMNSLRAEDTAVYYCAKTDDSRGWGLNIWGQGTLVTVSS
units label: M⁻¹ s⁻¹
kon: 287000

Now examine the next entry.
Lookup result for 509-max (scFv, VL and VH tied by name; also called Protein Nr; 855) scFv: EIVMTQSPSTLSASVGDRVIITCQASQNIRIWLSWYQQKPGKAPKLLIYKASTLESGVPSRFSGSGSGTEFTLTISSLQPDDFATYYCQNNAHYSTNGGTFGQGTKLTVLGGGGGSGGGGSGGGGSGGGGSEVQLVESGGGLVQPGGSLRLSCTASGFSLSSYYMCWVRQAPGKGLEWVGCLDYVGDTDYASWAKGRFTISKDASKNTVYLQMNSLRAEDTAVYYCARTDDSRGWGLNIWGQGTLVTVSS ; measured kon: 648000
